- System: NCI-H522 lung
- Measurement description: NCI-60 one-dose screen, 48 h (100 = growth as untreated, 0 = no growth, -100 = all killed)
- Reported conditions: 10 µM
This is part of a sample that, as a whole, favours compounds with a hit. Of some 83,000 tested, about 20% had one in any assay.
This listing pairs compounds with measured growth.
Give the value in % but do not write % after it.

Study these solved cases before continuing.
INSERT INTO measurements (compound, value_kind, recorded_result) VALUES
  ('Cc1ccc2nc(COc3ccc(C(=O)NNC(=S)NC(=O)c4ccccc4)cc3)[nH]c2c1', 'growth', 60.5),
  ('O=c1oc2ccc(-c3ccc(F)cc3F)cc2c(=O)n1-c1ccc(Cl)c(C(F)(F)F)c1', 'growth', -12.6),
  ('COc1cc(/C=N/NC(=O)c2ccc3nc(-c4ccc(Cl)cc4)[nH]c3c2)cc(OC)c1OC', 'growth', -44.2),
  ('COc1ccc(-c2ccc(SCC(=O)Nc3ccc(C#N)cc3)nn2)cc1', 'growth', 87.3);

Consider the compound CN1C(=O)N(C)C2SC(N/N=C/C=C/c3ccccc3)=NC21 (centres undefined) and give its measured growth.
56.1

Try this compound too: "O=C(CSc1nnc(-c2c[nH]c3ccccc23)n1-c1ccccc1)c1ccc(Br)cc1"
46.3

Try this compound too: "Cn1c(O)c(N=Nc2nc(-c3cc4ccccc4oc3=O)cs2)c2cc(Br)ccc21"
57.9

Try this compound too: "CC1(C)CC[C@]2(C(=O)N3CCOCC3)CC[C@]3(C)C(=CC[C@@H]4[C@@]5(C)CC[C@H](NCO)C(C)(C)[C@@H]5CC[C@]43C)[C@H]2C1"
-79.8

Try this compound too: "COc1ccc(/C=C/C(=O)c2ccc(S(=O)(=O)NCCNc3nc(Nc4ccc(F)cc4)nc(N(C)C)n3)cc2)cc1"
57.3

Reference for the values: PubChem BioAssay (NCI)
